# Lookup of reported GI50 keyed by entry
system: SK-MEL-2 melanoma; assay: NCI tumour cell line growth inhibition, 48 h

Illustrative cases are given below, each with its answer.
[
  {
    "Molecule": "CCCCCCCCCCCCNC(=O)[C@H]1CSC(c2cc3ccccc3s2)N1 (stereo partly specified)",
    "Meas Value": "1.96 µM"
  },
  {
    "Molecule": "Cc1cc(C(=O)Nc2nc3cccc(Cl)c3n2[C@@H]2CCCCN(C(=O)/C=C/CN(C)C)C2)ccn1",
    "Meas Value": "17.5 µM"
  },
  {
    "Molecule": "COc1ccc(-c2nsc3c2NC(=O)CC3c2ccc(F)cc2)cc1 (stereo unspecified)",
    "Meas Value": "3.22 µM"
  }
]

Prompt: What is its GI50 for SK-MEL-2 melanoma? Entry: "COc1c2c3ccccc3nc-2n(C)c2ccccc12"
Response: 36.8 µM

Prompt: Next record, please: "O=C(NCCc1ccccc1)C(c1ccccc1)(c1ccccc1)c1ccccc1"
Response: 7.04 µM

Prompt: What would you report for "COc1cc(-c2nc(NC(C)=O)sc2-c2ccnc(NCCNS(=O)(=O)c3ccccc3)n2)ccc1Cl" ?
Response: 2.42 µM

* * *

system: UACC-62 melanoma; experiment: NCI tumour cell line growth inhibition, 48 h
Catalogue of TGI readings, one per entry.
Reply with just the number (in µM).

Before answering, review these 3 worked examples.
[
  {
    "Compound": "Cc1cc(N)ccc1N=Nc1ccc(S(=O)(=O)CCOS(=O)(=O)O)cc1",
    "TGI (µM)": 20.3
  },
  {
    "Compound": "C=C1C(=O)OC2/C=C(\\C)C3OC3/C=C(/C(=O)OC)C(O)C(OC(=O)C3(C)OC3C)C12 (stereo not given)",
    "TGI (µM)": 5.19
  },
  {
    "Compound": "C/C1=C/C(=O)O[C@@H]2C[C@@H](CC[C@H](C)/C=C\\C=C\\CC1)O[C@@](O)([C@@H]1CSC(=O)N1CO)C2",
    "TGI (µM)": 26.2
  }
]

Turning now to a further compound:
Prompt: Reported TGI, compound "Cc1ccc2[nH]c3c(C)c4c(c(C)c3c2c1)CN(C)C=C4" : ____
Response: 3.15

* * *

Each item that follows carries a reported TGI.
tested on: SF-268 CNS; assay: NCI tumour cell line growth inhibition, 48 h

Known results for compounds:
[
  {
    "Compound": "CC(=O)OCC1OC(n2c(C#N)cc(=O)[nH]c2=O)CC1OC(C)=O (stereo not drawn)",
    "Reported Endpoint": "TGI",
    "Meas Value": "> 100 µM"
  },
  {
    "Compound": "CCSC1=N/C(=C\\c2ccco2)C(NN)=N1",
    "Reported Endpoint": "TGI",
    "Meas Value": "> 50 µM"
  },
  {
    "Compound": "NC(=O)NC(=O)CCC(NS(=O)(=O)c1ccccc1)C(=O)NC(N)=O (stereo not drawn)",
    "Reported Endpoint": "TGI",
    "Meas Value": "> 100 µM"
  },
  {
    "Compound": "Cc1cc(N)ccc1N=Nc1ccc(S(=O)(=O)CCOS(=O)(=O)O)cc1",
    "Reported Endpoint": "TGI",
    "Meas Value": "21.7 µM"
  },
  {
    "Compound": "C#CCSc1n[nH]c(-c2ccco2)n1",
    "Reported Endpoint": "TGI",
    "Meas Value": "> 100 µM"
  },
  {
    "Compound": "Cc1[nH]n(C2=NCCN2)c(=O)c1C",
    "Reported Endpoint": "TGI",
    "Meas Value": "> 100 µM"
  }
]

Prompt: Quick check: TGI of "O=C1Oc2ccccc2C(=O)/C1=C/N1C(=O)/C(=C/c2ccc3c(c2)OCO3)SC1=S" ?
Response: 32.6 µM

Prompt: Try this compound next: "COc1cccc(NC(=O)C(C)(C)C)c1C=O"
Response: > 100 µM

Prompt: Now give it for Nc1ccccc1SC(CC(=O)c1ccccc1)c1ccc([N+](=O)[O-])cc1 (stereo not drawn) too.
Response: 25.8 µM

Prompt: For CC1=CC(=O)CC(C)(C)C1(O)/C=C/C(C)=C/C(=O)O (stereo not drawn) then?
Response: > 100 µM

Prompt: And the next one, COc1ccc(N=Nc2c(C)c(C#N)c(=S)n(C3OC(COC(C)=O)C(OC(C)=O)C(OC(C)=O)C3OC(C)=O)c2C)cc1 (stereo not drawn) ?
Response: > 100 µM

Prompt: Let us now turn to COC(=O)C(Cc1ccccc1)NC(=O)C(CCC(=O)OCc1ccccc1)NC(=O)OC(C)(C)C (stereo not drawn)
Response: > 100 µM

Prompt: Continue with CNC1C(O)C(NC)C2OC3(O)C(=O)CC(C)OC3OC2C1O (stereo not drawn)
Response: > 100 µM

* * *

test system: NCI-H23 lung; test: NCI tumour cell line growth inhibition, 48 h; in the data active = GI50 below about 0.43 µM; inactive = the rest
Select the matching outcome among 1 (yes) for active, 0 (no) for inactive

[
  {
    "Molecule": "C[C@H](N)C(=O)N[C@@H]1[C@H]2C(=C(O)C[C@@H](O)[C@@H]2O)C(=O)O[C@]1(C)C(Cl)Cl",
    "Classification": "1 (yes)"
  },
  {
    "Molecule": "CCN(CC)c1ccc(C2CC(c3cc(OC)c(OC)c(OC)c3)=NN2)cc1 (stereo unspecified)",
    "Classification": "0 (no)"
  },
  {
    "Molecule": "Cc1ccc(S(=O)(=O)Oc2ccc([N+](=O)[O-])cc2[N+](=O)[O-])cc1",
    "Classification": "0 (no)"
  },
  {
    "Molecule": "Fc1ccc(-c2nn3c(CNc4ccccc4)nnc3s2)cc1",
    "Classification": "0 (no)"
  },
  {
    "Molecule": "CCCCCCCCCCCCNC(=O)[C@H]1CSC(c2cc3ccccc3s2)N1 (stereo partly specified)",
    "Classification": "0 (no)"
  }
]

Prompt: Each molecule tested received a call. Report the one for CCN(CC)CCCC(C)Nc1cc(-c2ccc(C(F)(F)F)cc2)c(C#N)c2nc3ccccc3n12 (stereo unspecified) .
Response: 0 (no)

* * *

Overview of recorded TGI for various molecules
tested on: NCI/ADR-RES ovarian; assay: NCI tumour cell line growth inhibition, 48 h

[
  {
    "Molecule": "O=C1/C=C/[C@@H](O)[C@@H]2C[C@@H](O)C[C@H]2/C=C/CCC[C@H](CCc2ccc(C(F)(F)F)cc2)O1",
    "Reported Endpoint": "TGI",
    "Meas Value": "9.58 µM"
  },
  {
    "Molecule": "Cc1nc2c(O)cc3c4c(=O)n(C)c(=O)n(C)c4n(Cc4ccccc4)c3c2nc1C",
    "Reported Endpoint": "TGI",
    "Meas Value": "74.9 µM"
  },
  {
    "Molecule": "CCNCCC1(CC)C(=O)NC(=O)NC1=O",
    "Reported Endpoint": "TGI",
    "Meas Value": "> 100 µM"
  },
  {
    "Molecule": "NC1OC(COC(=O)c2ccccc2)C(O)C(OC(=O)c2ccccc2)C1OC(=O)c1ccccc1 (stereo unspecified)",
    "Reported Endpoint": "TGI",
    "Meas Value": "> 100 µM"
  },
  {
    "Molecule": "CC(=O)OCC1OC(n2c(C#N)cc(=O)[nH]c2=O)CC1OC(C)=O (stereo unspecified)",
    "Reported Endpoint": "TGI",
    "Meas Value": "> 100 µM"
  },
  {
    "Molecule": "N=C(N)/N=C(\\N)c1c(-c2cc(O)ccc2O)nc2sccn12",
    "Reported Endpoint": "TGI",
    "Meas Value": "> 100 µM"
  }
]

Prompt: Tell me reported TGI for "O=Nc1ccc(O)c2ccccc12" , tested with NCI/ADR-RES ovarian.
Response: 6.61 µM

Prompt: Please give the result for "C=CCc1c(C)nc(C)nc1N/N=C/C=C/c1ccccc1" too.
Response: 64.8 µM

Prompt: Could you do the same for O=c1[nH]c(=O)n(C2OC(CO)C(O)C2O)c2ncc(-c3ccc(-c4ccccc4)cc3)nc12 (stereo unspecified) , please?
Response: > 20 µM

Prompt: Then this molecule: "Cc1cc2nc3c(C#N)c(-c4ccccc4)/c(=C\Nc4ccc(Cl)cc4)c(=O)n3c2cc1C"
Response: > 100 µM

Prompt: Also need "O=Nc1c(-c2c(O)[nH]c3ccccc23)[nH]c2ccccc12" , thanks.
Response: > 100 µM

* * *

test system: HOP-62 NSCLC; test: NCI tumour cell line growth inhibition, 48 h
Reported Endpoint: TGI

[
  {
    "Compound": "CC(=O)NC(CCCCN(Cc1ccccc1)C(=O)NCCCl)C(=O)NCc1ccccc1 (stereo not drawn)",
    "Reported Endpoint": "TGI",
    "Meas Value": "> 100 µM"
  },
  {
    "Compound": "CC(C)CC1C(=O)N2CCC[C@H]2C2(O)O[C@](NC(=O)C3C=C4c5cccc6[nH]c(Br)c(c56)C[C@H]4N(C)C3)(C(C)C)C(=O)N12 (stereo partly drawn)",
    "Reported Endpoint": "TGI",
    "Meas Value": "> 100 µM"
  },
  {
    "Compound": "N.N.N.N.O=NN1CCCCCC1(P(=O)([O-])[O-])P(=O)([O-])[O-].[Pt+4].[Pt+4]",
    "Reported Endpoint": "TGI",
    "Meas Value": "> 100 µM"
  }
]

Prompt: Return reported TGI; argument: "O=C(N/N=C/c1ccccc1O)C(O)(c1ccccc1)c1ccccc1"
Response: > 100 µM

Prompt: Now the same for "Cc1cc(C(=O)Nc2nc3cccc(Cl)c3n2[C@@H]2CCCCN(C(=O)/C=C/CN(C)C)C2)ccn1"
Response: 27.4 µM

Prompt: For "CC1=[N+]([O-])C(C)(C)N(N=O)C1(C)C" then?
Response: > 10 µM

Prompt: Try this compound next: CNC1C(O)C(NC)C2OC3(O)C(=O)CC(C)OC3OC2C1O (stereo not drawn)
Response: > 100 µM

Prompt: Consider next the compound "COc1cc2c(c(OC)c1O)-c1ccc(OC)c(=O)cc1[C@@H](NC(=O)C(F)(F)F)CC2" in the same way.
Response: 2.4 µM
